// data source = the supplement of paper PMC12645437

Biological target: T1, CRBN, Q96SW2;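 further: pooled lentiviral library of zinc finger degron-EGFP fusions in mCherry-positive Jurkat cells, FACS-sorted after compound exposure, with degron abundance counted by next-generation sequencing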
T1 chain: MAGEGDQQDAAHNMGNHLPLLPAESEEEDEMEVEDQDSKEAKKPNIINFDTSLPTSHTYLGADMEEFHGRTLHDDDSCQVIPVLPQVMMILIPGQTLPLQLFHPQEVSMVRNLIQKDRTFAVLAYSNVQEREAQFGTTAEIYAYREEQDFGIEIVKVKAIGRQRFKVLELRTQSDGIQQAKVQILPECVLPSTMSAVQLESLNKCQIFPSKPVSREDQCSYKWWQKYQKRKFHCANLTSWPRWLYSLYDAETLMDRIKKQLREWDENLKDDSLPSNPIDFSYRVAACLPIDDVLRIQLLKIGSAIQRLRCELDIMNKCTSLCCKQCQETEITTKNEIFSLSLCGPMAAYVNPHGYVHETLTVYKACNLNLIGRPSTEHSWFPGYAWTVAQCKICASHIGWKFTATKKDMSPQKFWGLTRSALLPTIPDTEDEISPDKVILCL
Assay: log2 fold change of degron read counts, EGFP-low vs EGFP+ sorted cells (limma voom), compound-induced degradation; higher = more compound-induced degradation of the degron-EGFP fusion; degrons are variants of IKZF1/3 zinc finger 2; compound dose not given here
Details: Jurkat; 18 h; compound: thalidomide
The full ranking holds about 8,300 sequences; the median of “log2 fold change of degron read counts, EGFP-low vs EGFP+ sorted cells (limma voom), compound-induced degradation” is about -1.1, and the highest 2% start at about 3.2. This is one part of a sample in which the highest values are shown more often than they occur.
Classification by log2 fold change of degron read counts | ranges: Low (below -0.6), Medium (-0.6 to below 2), High (2 or more)

Illustrative cases are given below, each with its answer.
input_sequence="FICPICGAAFTQKGNLLRHIKL [46F_47I_49P_50I_52G_53A_54A_55F_67L_, Q9UKT9]" label=High
input_sequence="FSCDVCGAPFTQKGNLLRHIKL [46F_47S_49D_50V_52G_53A_54P_55F_67L_, Q9UKT9]" label=Medium
input_sequence="FFCPICGAAFTQKGNLLRHIKL [46F_47F_49P_50I_52G_53A_54A_55F_67L_, Q9UKT9]" label=Medium
input_sequence="FRCPICGAAFTQKGNLLRHIKL [46F_47R_49P_50I_52G_53A_54A_55F_67L_, Q9UKT9]" label=High
input_sequence="FRCEQCGAGFTQKGNLLRHIKL [46F_47R_49E_50Q_52G_53A_54G_55F_67L_, Q9UKT9]" label=Low

Q. Lab note: sort FWCPICGAAFTQKGNLLRHIKL [46F_47W_49P_50I_52G_53A_54A_55F_67L_, Q9UKT9] into the matching log2 fold change of degron read counts band.
A. Medium

Q. Entry to check: FTCSVCGHMFTQKGNLLRHIKL [46F_47T_49S_50V_52G_53H_54M_55F_67L_, Q9UKT9]
A. Low
